Recorded melting point for the following compounds
measured-endpoint: melting point

# compound, observed-result
records = [
    ("CC1C(=O)c2ccc(O)cc2Sc2ccccc21 (stereo not shown) [Example 41]", "190 to 191.6 °C"),
    ("O=C1Cc2cc(-c3cccs3)ccc2Sc2cc(O)cc(O)c21 [Example 76]", "240.1 to 246.1 °C"),
    ("CCC1C(=O)c2cc(O)c(O)cc2Sc2ccc(-c3cccs3)cc21 (stereo not shown) [Example 162]", "225.7 to 227.4 °C"),
    ("CCC1C(=O)c2cc(O)c(O)cc2Sc2cc(-c3cc4ccccc4o3)ccc21 (stereo not shown) [Example 168]", "293.2 °C (dec.)"),
    ("CC(C)(C)c1ccc2c(c1)CCc1c(O)cc(O)cc1S2 [Example 137]", "151.7 to 153.7 °C"),
    ("Oc1cc(O)c2c(c1)Oc1ccc(-c3cccs3)cc1CC2 [Example 111]", "188.3 to 191.4 °C"),
    ("O=C1Cc2cc(-c3cccs3)ccc2Oc2cc(O)cc(O)c21 [Example 58]", "199.9 to 201 °C"),
    ("CCC1C(=O)c2cc(O)c(O)cc2Sc2cc(-c3cccc(Cl)c3)ccc21 (stereo not shown) [Example 157]", "175.5 to 176.8 °C"),
    ("CCCCc1ccc2c(c1)CC(=O)c1c(O)cc(O)cc1O2 [Example 50]", "105.6 to 106.8 °C"),
    ("CCCCC(=O)c1ccc2c(c1)CCc1c(O)cc(O)cc1S2 [Example 131]", "155.1 to 158.7 °C"),
]

----------
measured-endpoint: melting point

# compound, measured-endpoint, observed-result
rows = [
    ("CCC1C(=O)c2cc(O)c(O)cc2Sc2cc(-c3cccc(C(F)(F)F)c3)ccc21 (stereo not drawn) [Example 156]", "melting point", "109.7 to 111.9 °C"),
    ("CCC1C(=O)c2cc(O)c(O)cc2Sc2ccc(-c3cc4ccccc4o3)cc21 (stereo not drawn) [Example 161]", "melting point", "277.4 to 279.2 °C"),
    ("O=C1Cc2ccc(-c3ccc(O)cc3O)cc2Oc2cc(O)cc(O)c21 [Example 100]", "melting point", "239.1 to 242.6 °C"),
    ("O=C1Cc2ccc(-c3ccc(-c4ccccc4)cc3)cc2Oc2cc(O)cc(O)c21 [Example 96]", "melting point", "261.6 to 263.2 °C"),
    ("ON=C1Cc2ccccc2Oc2cc(O)cc(O)c21 [Example 24]", "melting point", "208 to 213.7 °C"),
    ("CSc1ccc2c(c1)Sc1cc(O)c(O)cc1C(=O)C2 [Example 23]", "melting point", "232 to 236.9 °C"),
    ("CCON=C(C)c1ccc2c(c1)CCc1c(O)cc(O)cc1S2 [Example 139]", "melting point", "110.7 to 112.4 °C"),
    ("CCC1C(=O)c2c(O)cc(O)cc2Sc2ccccc21 (stereo not drawn) [Example 38]", "melting point", "175 to 177.5 °C"),
    ("O=C1Cc2ccc(-c3cc4ccccc4o3)cc2Oc2cc(O)cc(O)c21 [Example 95]", "melting point", "257.9 to 259.9 °C"),
]

----------
Recorded melting point for the following compounds
measured-endpoint: melting point

# compound, observed-result
records = [
    ("OCCCc1ccc2c(c1)CCc1c(O)cc(O)cc1O2", "153.3 to 154.8 °C"),
    ("CCC1=Cc2cc(O)c(O)cc2Sc2ccccc21", "37.9 to 41.5 °C"),
    ("O=C1Cc2ccc(-c3cccc(Cl)c3)cc2Sc2cc(O)cc(O)c21", "180.3 to 191.6 °C"),
    ("CCC1C(=O)c2cc(O)c(O)cc2Sc2cc(-c3ccc(O)cc3)ccc21 (stereo not shown)", "155.4 to 159.4 °C"),
    ("O=C1Cc2cc(-c3cccc(Cl)c3)ccc2Oc2cc(O)cc(O)c21", "208.9 to 213.6 °C"),
    ("Oc1cc(O)c2c(c1)Oc1cc(-c3ccco3)ccc1CC2", "198.6 to 201.1 °C"),
    ("O=C1Cc2cc(-c3cccc([N+](=O)[O-])c3)ccc2Sc2cc(O)cc(O)c21", "> 250 °C (dec.)"),
    ("Nc1cccc(-c2ccc3c(c2)Oc2cc(O)cc(O)c2C(=O)C3)c1", "228.3 to 230 °C"),
    ("O=C1Cc2ccc(I)cc2Sc2cc(O)cc(O)c21", "> 250 °C (dec.)"),
    ("CCC1C(=O)c2cc(O)c(O)cc2Sc2cc(-c3ccc(OC(F)(F)F)cc3)ccc21 (stereo not shown)", "216.8 to 219.1 °C"),
    ("N#Cc1ccc2c(c1)CCc1c(O)cc(O)cc1O2", "211.8 to 217.3 °C"),
    ("CC(=O)c1cc(-c2ccc3c(c2)CC(=O)c2c(O)cc(O)cc2O3)ccc1C", "228.4 to 230.8 °C"),
    ("Oc1cc(O)c2c(c1)Oc1ccc(-c3ccco3)cc1CC2", "163.6 to 173.9 °C"),
    ("CCC1C(=O)c2cc(O)c(O)cc2Sc2cc(SC)ccc21 (stereo not shown)", "179.8 to 183 °C"),
    ("CCCCc1ccc2c(c1)CC(=O)c1c(O)cc(O)cc1S2", "106.9 to 108.1 °C"),
    ("CCCCC(=O)c1ccc2c(c1)CCc1c(O)cc(O)cc1O2", "119.8 to 121.7 °C"),
    ("O=C1Cc2ccc(-c3ccccc3)cc2Sc2cc(O)cc(O)c21", "209.7 to 212 °C"),
    ("O=C1Cc2cc(-c3cccc([N+](=O)[O-])c3)ccc2Oc2cc(O)cc(O)c21", "244.3 to 250.7 °C"),
    ("Oc1cc(O)c2c(c1)Oc1cc(-c3cccc(Cl)c3)ccc1CC2", "137.1 to 143.2 °C"),
]

----------
tested on: pig tracheal smooth muscles; assay: Dilating action on contraction of tracheal smooth muscles (high K+ contraction, Magnus tube); details: Sus scrofa, 2 h; K+ contraction (72.7 mM); test substance final concentration 10 μM; two hours after addition; tension before addition = 100%; read-out: Relative Contraction Force (%)
Recorded activity at 10 µM for the following compounds
measured-endpoint: activity at 10 µM

# structure-notation, observed-result
data = [
    ("Oc1cc(O)c2c(c1)Sc1cccc(Cl)c1CC2", "1.4%"),
    ("O=C1Cc2c(Cl)cccc2Sc2cc(O)cc(O)c21", "0%"),
    ("Oc1cc(O)c2c(c1)Oc1cc(-c3cccs3)ccc1CC2", "10.9%"),
]

----------
Recorded melting point for the following compounds

# compound, melting point
measured = [
    ("C[Si](C)(C)CCc1ccc2c(c1)CCc1c(O)cc(O)cc1O2", "125.2 to 126.9 °C"),
    ("CCC1C(=O)c2c(O)cc(O)cc2Sc2ccc(SC)cc21 (centres unmarked) [Example 35]", "167.4 to 168.2 °C"),
    ("CCC1C(=O)c2cc(O)c(O)cc2Sc2cc(-c3cccc([N+](=O)[O-])c3)ccc21 (centres unmarked) [Example 175]", "221.8 to 225 °C"),
    ("O=C1Cc2cc(-c3ccc(O)cc3O)ccc2Oc2cc(O)cc(O)c21 [Example 77]", "212.6 to 215.7 °C"),
    ("O=C1Cc2cc(-c3cccnc3)ccc2Oc2cc(O)cc(O)c21 [Example 55]", "293.9 to 300.1 °C"),
    ("CCC1C(=O)c2cc(O)c(O)cc2Sc2cc(-c3ccccc3C)ccc21 (centres unmarked) [Example 158]", "179.2 to 181.1 °C"),
    ("O=C1Cc2cc(Cl)ccc2Sc2cc(O)cc(O)c21 [Example 15]", "217.9 to 221.6 °C"),
    ("Oc1cc(O)c2c(c1)Oc1cc(-c3cccs3)ccc1CC2 [Example 110]", "194.2 to 195.6 °C"),
    ("O=[N+]([O-])c1cccc(-c2ccc3c(c2)CCc2c(O)cc(O)cc2O3)c1 [Example 120]", "199.6 to 201.8 °C"),
    ("CSc1ccc2c(c1)CCc1c(O)cc(O)cc1S2 [Example 2]", "161.6 to 163.9 °C"),
    ("O=C1c2c(O)cc(O)cc2Sc2ccccc2C1Cc1ccccc1 (centres unmarked) [Example 40]", "67.5 to 68.3 °C"),
    ("O=C1Cc2ccc(-c3cccs3)cc2Oc2cc(O)cc(O)c21 [Example 5]", "227.6 to 228.1 °C"),
    ("CCCC(=O)c1ccc2c(c1)CCc1c(O)cc(O)cc1O2 [Example 128]", "157.6 to 157.9 °C"),
    ("CCC1C(=O)c2cc(O)c(O)cc2Sc2cc(-c3ccc(-c4ccccc4)cc3)ccc21 (centres unmarked) [Example 171]", "> 300 °C"),
    ("CC1(C)C(=O)c2cc(O)c(O)cc2Sc2ccccc21 [Example 31]", "194.2 to 196.1 °C"),
    ("CC1C(=O)c2c(O)cc(O)cc2Sc2ccccc21 (centres unmarked) [Example 39]", "152.1 to 153.4 °C"),
    ("Oc1cc(O)c2c(c1)Sc1cc(-c3ccco3)ccc1CC2 [Example 124]", "148.5 to 149.6 °C"),
    ("O=C1Cc2cc(Br)ccc2Sc2cc(O)c(O)cc21 [Example 22]", "285.7 °C (dec.)"),
    ("O=C1Cc2cc(-c3ccccc3)ccc2Oc2cc(O)c(O)c(O)c21 [Example 88]", "124 to 125.8 °C"),
    ("O=C1Cc2ccc(-c3cccc(C(F)(F)F)c3)cc2Oc2cc(O)cc(O)c21 [Example 73]", "183 to 184.7 °C"),
    ("Cc1ccccc1-c1ccc2c(c1)CC(=O)c1c(O)cc(O)cc1O2 [Example 62]", "91.8 to 94.8 °C"),
    ("O=CNc1cccc(-c2ccc3c(c2)CC(=O)c2c(O)cc(O)cc2O3)c1 [Example 75]", "241 to 247.08 °C"),
    ("O=C1Cc2cc(-c3ccc(-c4ccccc4)cc3)ccc2Oc2cc(O)cc(O)c21 [Example 79]", "> 250 °C (dec.)"),
    ("CCC1C(=O)c2cc(O)c(O)cc2Sc2ccc(-c3cc4ccccc4s3)cc21 (centres unmarked) [Example 172]", "251.4 to 255.5 °C (dec.)"),
    ("O=C(Cc1ccc2c(c1)CC(=O)c1c(O)cc(O)cc1O2)C1=CCCCC1 [Example 66]", "173.8 to 175.8 °C"),
    ("Oc1cc(O)c2c(c1)Sc1ccc(-c3cccs3)cc1CC2 [Example 126]", "207.3 to 208.1 °C"),
    ("CCC1C(=O)c2cc(O)c(O)cc2Sc2ccc(Br)cc21 (centres unmarked) [Example 44]", "235.6 to 237.4 °C"),
    ("O=C1Cc2ccc(Br)cc2Sc2cc(O)cc(O)c21 [Example 9]", "> 200 °C (dec.)"),
    ("Nc1cccc(-c2ccc3c(c2)CCc2c(O)cc(O)cc2O3)c1 [Example 119]", "197.2 to 199.3 °C"),
    ("O=C1Cc2ccc(-c3cc4ccccc4o3)cc2Sc2cc(O)cc(O)c21 [Example 92]", "251.6 to 253.8 °C"),
    ("CCC1C(=O)c2cc(O)c(O)cc2Sc2ccc(-c3ccco3)cc21 (centres unmarked) [Example 159]", "238.7 to 241.7 °C"),
    ("Cc1ccccc1-c1ccc2c(c1)Sc1cc(O)cc(O)c1C(=O)C2 [Example 89]", "178.1 to 198.3 °C"),
    ("O=C(Cc1ccc2c(c1)Oc1cc(O)cc(O)c1C(=O)C2)C1=CCCCC1 [Example 68]", "195.5 to 195.8 °C"),
    ("CCC1C(=O)c2cc(O)c(O)cc2Sc2cc(-c3ccc(C)cc3)ccc21 (centres unmarked) [Example 160]", "271.9 to 273.3 °C"),
    ("Oc1cc(O)c2c(c1)Oc1cc(CCc3ccccc3)ccc1CC2 [Example 108]", "169.1 to 174.9 °C"),
    ("CCC1C(=O)c2cc(O)c(O)cc2Sc2cc(-c3ccco3)ccc21 (centres unmarked) [Example 153]", "242.9 to 248.4 °C"),
    ("Nc1cccc(-c2ccc3c(c2)CC(=O)c2c(O)cc(O)cc2S3)c1 [Example 83]", "> 200 °C (dec.)"),
    ("Cc1ccccc1-c1ccc2c(c1)Oc1cc(O)cc(O)c1C(=O)C2 [Example 72]", "163.5 to 165.8 °C"),
]
